assayed_target: UniProt Q99572
protocol_summary: P2X7 FLIPR assay: antagonism of BzATP response in 293 HEK cells stably expressing P2X7 receptor
applied_conditions: FLIPR fluorescence (Fluo-4), agonist BzATP, 293 HEK cells stably transfected with P2X7 receptor
metric: pIC50
Answers are plain numbers, as −log10 of the molar value.

Answered examples (3):
O=C(NCC(c1ccc(C(F)F)nc1)N1CCC(F)(F)CC1)c1cccc(Cl)c1Cl (single isomer, unassigned; (+)) [(+)2,3-dichloro-N-[2-[6-(difluoromethyl)-3-pyridyl]-2-(4,4-d] ... 8.62
Cc1ncc(C(CNC(=O)c2c(F)cccc2Cl)N2CCCC(F)(F)C2)cn1 (single isomer, unassigned; (-)) [(−)2-chloro-N-[2-(3,3-difluoro-1-piperidyl)-2-(2-methylpyrim] ... 6.55
Cc1cccc(C(=O)NC[C@H](c2ccc(Cl)cc2)N2CCOCC2)c1Cl ... 9.28

Challenge: Quick one: give measured pIC50 for Cc1ncc(C(CNC(=O)c2cccc(Cl)c2Cl)N2CCC(C)C2)cn1 (stereo not shown)
Response given: 6.00

---

So I've got a bunch of compounds here, and I need their log10 IC50 values.
assayed_target: P2X7 receptor (Homo sapiens (Human), UniProt Q99572)
Sequence (Q99572 whole entry): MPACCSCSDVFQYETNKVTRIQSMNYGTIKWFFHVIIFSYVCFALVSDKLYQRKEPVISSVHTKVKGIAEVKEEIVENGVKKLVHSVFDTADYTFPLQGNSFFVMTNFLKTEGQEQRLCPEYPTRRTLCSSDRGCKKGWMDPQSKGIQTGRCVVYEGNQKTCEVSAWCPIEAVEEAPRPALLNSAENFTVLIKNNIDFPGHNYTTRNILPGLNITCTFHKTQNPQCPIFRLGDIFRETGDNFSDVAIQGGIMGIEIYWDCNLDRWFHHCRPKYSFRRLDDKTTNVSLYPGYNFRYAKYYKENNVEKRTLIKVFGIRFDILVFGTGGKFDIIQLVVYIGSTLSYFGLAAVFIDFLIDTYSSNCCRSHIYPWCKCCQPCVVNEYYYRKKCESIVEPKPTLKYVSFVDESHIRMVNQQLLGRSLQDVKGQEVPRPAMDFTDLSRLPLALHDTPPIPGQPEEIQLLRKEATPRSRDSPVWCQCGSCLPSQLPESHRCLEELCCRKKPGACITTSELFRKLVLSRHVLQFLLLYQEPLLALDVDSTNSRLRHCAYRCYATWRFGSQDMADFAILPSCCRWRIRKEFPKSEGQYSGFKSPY
protocol_summary: P2X7 FLIPR assay: antagonism of BzATP response in 293 HEK cells stably expressing P2X7 receptor
applied_conditions: FLIPR fluorescence (Fluo-4), agonist BzATP, 293 HEK cells stably transfected with P2X7 receptor
Protocol: Cells were plated to cell density of approximately 15,000 cells/well in 384-well assay plates (50 μl/well) with 1.5% low serum media (DMEM, 1.5% BCS, 1% L-glut (2 mM), 1% P/S). […] Compound mixtures (A) were added to assay plates containing cells and placed at room temperature for 30 minutes, then BzATP (B) was added. Fluorescence was read using the Tetra FLIPR® (Molecular Devices, Inc., Sunnyvale, Calif., USA) and IC50 values were calculated by standard methods to determine antagonist activity.
Recorded IC50 (log10, µM)

Answered examples (3):
COc1ccc(C(CNC(=O)c2ccccc2C)N2CCOCC2)cc1 (stereo not drawn) ... -0.30
COC1CCN(C(CNC(=O)c2cccc(Cl)c2Cl)c2cnc(C)nc2)CC1 (stereo not drawn) ... 0.58
O=C(NCC(c1ccc(C(F)(F)F)nc1)N1CCC(F)(F)CC1)c1cccc(F)c1Cl (single isomer, unassigned; (-)) [(−)2-chloro-N-[2-(4,4-difluoro-1-piperidyl)-2-[6-(trifluorom] ... -2.24

For every item below, please supply its log10 IC50.
1. O=C(NCC(c1cnc(C(F)(F)F)nc1)N1CCC(F)(F)CC1)c1c(F)cccc1Cl (single isomer, unassigned; (-)) [(−)2-chloro-N-[2-(4,4-difluoro-1-piperidyl)-2-[2-(trifluorom]
2. CS(=O)(=O)c1ccc(Cl)c(C(=O)NCC(c2ccc(Cl)cc2)N2CCOCC2)c1 (single isomer, unassigned; (-)) [(−)2-chloro-N-[2-(4-chlorophenyl)-2-morpholino-ethyl]-5-meth]
3. Cc1ncc(C(CNC(=O)c2c(Cl)cccc2Cl)N2CCC(F)CC2)cn1 (single isomer, unassigned; (-)) [(−)2,6-dichloro-N-[2-(4-fluoro-1-piperidyl)-2-(2-methylpyrim]

Response given:
[-2.09, -1.19, -1.28]

---

assayed_target: P2X7 receptor (Homo sapiens (Human), UniProt Q99572)
protocol_summary: P2X7 FLIPR assay: antagonism of BzATP response in 293 HEK cells stably expressing P2X7 receptor
applied_conditions: FLIPR fluorescence (Fluo-4), agonist BzATP, 293 HEK cells stably transfected with P2X7 receptor
metric: IC50 (nM)
Answers are plain numbers, in nM.

Answered examples (4):
O=C(NCC(c1ccc(F)nc1)N1CCC(F)(F)CC1)c1ccccc1Cl (stereo not drawn) ... 4
CS(=O)(=O)c1ccc(Cl)c(C(=O)NCC(c2ccc(Cl)cc2)N2CCOCC2)c1 (single isomer, unassigned; (+)) [(+)2-chloro-N-[2-(4-chlorophenyl)-2-morpholino-ethyl]-5-meth] ... 180
O=C(NCC(c1cnc(C(F)(F)F)nc1)N1CCOCC1)c1ccccc1Cl (single isomer, unassigned; (-)) [(−)2-chloro-N-[2-morpholino-2-[2-(trifluoromethyl)pyrimidin-] ... 15
Cc1ncc(C(CNC(=O)c2ccccc2Cl)N2CCCCC2)cn1 (single isomer, unassigned; (-)) [(−)2-chloro-N-[2-(2-methylpyrimidin-5-yl)-2-(1-piperidyl)eth] ... 120

For every item below, please supply its IC50.
1. O=C(NCC(c1cnc(C(F)(F)F)nc1)N1CCOCC1)c1cccc(Cl)c1Cl (single isomer, unassigned; (+)) [(+)2,3-dichloro-N-[2-morpholino-2-[2-(trifluoromethyl)pyrimi]
2. Cc1ncc(C(CNC(=O)c2cccc(OC(F)F)c2Cl)N2CCC(F)(F)CC2)cn1 (single isomer, unassigned; (+)) [(+)2-chloro-3-(difluoromethoxy)-N-[2-(4,4-difluoro-1-piperid]

Response given:
4.8
7

For every item below, please supply its IC50.
1. O=C(NCC(c1ccc(C2CC2)nc1)N1CCOCC1)c1cccc(Cl)c1Cl (stereo not drawn)
2. Cc1ncc(C(CNC(=O)c2cccc(Cl)c2Cl)N2CCC(Cl)CC2)cn1 (stereo not drawn)
3. COc1cccc(C(=O)NCC(c2ccc(Cl)cc2)N2CCOCC2)c1Cl (single isomer, unassigned; (+)) [(+)2-chloro-N-[2-(4-chlorophenyl)-2-morpholino-ethyl]-3-meth]
4. COc1ccc(C(CNC(=O)c2cccc(Cl)c2Cl)N2CCC(F)(F)CC2)cc1 (stereo not drawn)

Response given:
1: 8.2; 2: 5.7; 3: 4.2; 4: 0.6

For every item below, please supply its IC50.
1. Cc1ncc(C(CNC(=O)c2cccc(Cl)c2Cl)N2CC(F)(F)C(F)(F)C2)cn1 (stereo not drawn)
2. O=C(NCC(c1cnc(C(F)(F)F)nc1)N1CCOCC1)c1cccc(C(F)(F)F)c1Cl (single isomer, unassigned; (+)) [(+)2-chloro-N-[2-morpholino-2-[2-(trifluoromethyl)pyrimidin-]

Response given:
2.6
17

---

assayed_target: P2X7 receptor (Homo sapiens (Human), UniProt Q99572)
protocol_summary: P2X7 FLIPR assay: antagonism of BzATP response in 293 HEK cells stably expressing P2X7 receptor
applied_conditions: FLIPR fluorescence (Fluo-4), agonist BzATP, 293 HEK cells stably transfected with P2X7 receptor
metric: IC50 (nM)
Numbers only, in nM.

For every item below, please supply its IC50.
1. O=C(NCC(c1ccc(C(F)F)nc1)N1CCC(F)(F)CC1)c1c(Cl)cccc1Cl (single isomer, unassigned; (-)) [(−)2,6-dichloro-N-[2-[6-(difluoromethyl)-3-pyridyl]-2-(4,4-d]
2. CCc1ncc(C(CNC(=O)c2c(F)cccc2Cl)N2CCC(F)(F)CC2)cn1 (single isomer, unassigned; (-)) [(−)2-chloro-N-[2-(4,4-difluoro-1-piperidyl)-2-(2-ethylpyrimi]
3. O=C(NC[C@H](c1ccc(Cl)cc1)N1CCOCC1)c1cccc(Cl)c1Cl
4. COc1cccc(C(=O)NCC(c2ccc(F)cc2)N2CCC(F)(F)CC2)c1Cl (single isomer, unassigned; (-))

Response given:
1. 5.5
2. 36
3. 0.62
4. 2.6

For every item below, please supply its IC50.
1. Cc1ncc(C(CNC(=O)c2c(Cl)cccc2Cl)N2CCC(F)CC2)cn1 (single isomer, unassigned; (+)) [(+)2,6-dichloro-N-[2-(4-fluoro-1-piperidyl)-2-(2-methylpyrim]
2. Cc1cccc(C(=O)NCC(c2ccncc2)N2CCOCC2)c1C (stereo not drawn)
3. O=C(NCC(c1cnc(C(F)F)nc1)N1CCOCC1)c1cccc(F)c1Cl (single isomer, unassigned; (+)) [(+)2-chloro-N-[2-[2-(difluoromethyl)pyrimidin-5-yl]-2-morpho]
4. Cc1ncc(C(CNC(=O)c2ccccc2Cl)N2CCC(F)(F)CC2)cn1 (single isomer, unassigned; (+)) [(+)2-chloro-N-[2-(4,4-difluoro-1-piperidyl)-2-(2-methylpyrim]
5. Cc1ncc(C(CNC(=O)c2cc(F)cc(Cl)c2Cl)N2CCC(F)(F)CC2)cn1 (single isomer, unassigned; (+)) [(+)2,3-dichloro-N-[2-(4,4-difluoro-1-piperidyl)-2-(2-methylp]
6. COc1ccc(C(=O)NCC(c2cnc(C(F)(F)F)nc2)N2CCC(F)(F)CC2)c(Cl)c1OC (single isomer, unassigned; (+)) [(+)2-chloro-N-[2-(4,4-difluoro-1-piperidyl)-2-[2-(trifluorom]
7. Cc1ncc(C(CNC(=O)c2cccc(F)c2Cl)N2CCCOCC2)cn1 (stereo not drawn)

Response given:
[9.6, 1400, 4.8, 13, 5.1, 14, 330]

For every item below, please supply its IC50.
1. O=C(NCC(c1cnc(C(F)F)nc1)N1CCOCC1)c1cccc(F)c1Cl (single isomer, unassigned; (-)) [(−)2-chloro-N-[2-[2-(difluoromethyl)pyrimidin-5-yl]-2-morpho]
2. COc1cccc(C(=O)NCC(c2cnc(C)nc2)N2CCC(F)(F)CC2)c1Cl (single isomer, unassigned; (+)) [(+)2-chloro-N-[2-(4,4-difluoro-1-piperidyl)-2-(2-methylpyrim]
3. O=C(NCC(c1cnc(C(F)(F)F)nc1)N1CCC(F)(F)CC1)c1cccc(F)c1Cl (single isomer, unassigned; (+)) [(+)2-chloro-N-[2-(4,4-difluoro-1-piperidyl)-2-[2-(trifluorom]
4. O=C(NCC(c1ccc(C(F)(F)F)nc1)N1CCOCC1)c1cccc(Cl)c1Cl (single isomer, unassigned; (+)) [(+)2,3-dichloro-N-[2-morpholino-2-[6-(trifluoromethyl)-3-pyr]

Response given:
1: 38; 2: 12; 3: 1.7; 4: 5.5

For every item below, please supply its IC50.
1. Cc1ncc(C(CNC(=O)c2c(F)cccc2Cl)N2CCC(F)(F)CC2)cn1 (single isomer, unassigned; (+)) [(+)2-chloro-N-[2-(4,4-difluoro-1-piperidyl)-2-(2-methylpyrim]
2. Cn1cc(C(CNC(=O)c2cc(F)cc(Cl)c2Cl)N2CCC(F)(F)CC2)cn1 (single isomer, unassigned; (-)) [(−)2,3-dichloro-N-[2-(4,4-difluoro-1-piperidyl)-2-(1-methylp]
3. O=C(NCC(c1ccncc1)N1CCOCC1)c1cccc(Cl)c1Cl (stereo not drawn)
4. Cc1ncc(C(CNC(=O)c2ccccc2Cl)N2CCCOCC2)cn1 (stereo not drawn)
5. O=C(NCC(c1cnc(C(F)F)nc1)N1CCOCC1)c1cccc(Cl)c1Cl (single isomer, unassigned; (+)) [(+)2,3-dichloro-N-[2-[2-(difluoromethyl)pyrimidin-5-yl]-2-mo]
6. CCc1ncc(C(CNC(=O)c2cccc(Cl)c2Cl)N2CCC(F)(F)CC2)cn1 (single isomer, unassigned; (+)) [(+)2,3-dichloro-N-[2-(4,4-difluoro-1-piperidyl)-2-(2-ethylpy]

Response given:
1. 19
2. 26
3. 750
4. 680
5. 3.9
6. 2.6
